The values you see were collected from BigSolDB 2.1.

conditions: in dichloromethane, 288.15 K
Experimental Readout: solubility (mole fraction)
Give bare numbers.

// sample "O=C(O)/C=C/C(=O)O.OCCOCCN1CCN(C2=Nc3ccccc3Sc3ccccc32)CC1.OCCOCCN1CCN(C2=Nc3ccccc3Sc3ccccc32)CC1" , its solubility (mole fraction) was 0.000213

---

conditions: in n-hexane, 298.15 K
Experimental Readout: solubility (mole fraction)
Numbers only.

solubility (mole fraction) recorded for this molecule, "O=C(O)/C=C/C(=O)O.OCCOCCN1CCN(C2=Nc3ccccc3Sc3ccccc32)CC1.OCCOCCN1CCN(C2=Nc3ccccc3Sc3ccccc32)CC1" , is 2.75e-05

---

conditions: in n-heptane, 303.15 K
Experimental Readout: solubility (mole fraction)
One number for each entry.

Reported solubility (mole fraction) for "O=C(O)/C=C/C(=O)O.OCCOCCN1CCN(C2=Nc3ccccc3Sc3ccccc32)CC1.OCCOCCN1CCN(C2=Nc3ccccc3Sc3ccccc32)CC1" was 3.61e-05
